Each recorded value in this set is attributed to patent US12624096B2.

Molecular target: htau40 (Homo sapiens, UniProt P10636)
Sequence (P10636 1-441 isoform P10636-8): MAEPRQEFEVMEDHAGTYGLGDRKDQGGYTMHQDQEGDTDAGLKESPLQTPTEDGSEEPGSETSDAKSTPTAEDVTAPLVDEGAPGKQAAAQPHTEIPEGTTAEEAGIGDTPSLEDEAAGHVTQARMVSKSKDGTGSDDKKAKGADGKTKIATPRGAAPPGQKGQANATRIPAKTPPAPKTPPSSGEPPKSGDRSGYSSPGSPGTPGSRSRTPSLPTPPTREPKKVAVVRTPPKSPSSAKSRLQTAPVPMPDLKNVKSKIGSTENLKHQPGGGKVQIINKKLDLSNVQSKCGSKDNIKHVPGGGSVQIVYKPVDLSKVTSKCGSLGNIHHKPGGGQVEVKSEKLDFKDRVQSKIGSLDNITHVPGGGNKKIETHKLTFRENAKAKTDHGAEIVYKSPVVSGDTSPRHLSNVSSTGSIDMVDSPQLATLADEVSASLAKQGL
Assay: Biacore X100 SPR of anti-tau mAbs on immobilised htau40
Format: binding
Details: newly converted mAbs, Table 25 (Example 28), hT40
RESULT TYPE: ka (M⁻¹ s⁻¹)
Report only the number, with the unit M⁻¹ s⁻¹ understood.

Query: ka for CE2: anti-tau clone referred to as CE2 or E1B8, SEQ ID NO: 366 (protein, CE2/E1B8 amino acid sequence) scFv: QVQLQESGPSLVKPSQTLSLTCTVSGFSLTNYPVGWVRQAPGKALEWIGNIENDGSANYASALKSRLSITRDTSKNQVSLSLSSATTEDTAVYYCGREFGGSDGYTYFVDIDYWGPGLLVTVSSEGKSSGASGESKVDDQAVLTQPSSVSKSLGQSVSITCSGSSSNVGYGNYVSWFQQVPGSAPKILIYGATSRASGVPDRFSGSRSGNTATLTITSLQAEDEADYYCASYDGSSSGVFGSGTRLTVLG ?
Result: 323800
